target: Serine/threonine-protein kinase ATR (Homo sapiens, UniProt Q13535); assay: Inhibition of full length recombinant ATR after 24 hrs by radiometric phosphate incorporation assay
Consider the cut-off 200 nM. If the recorded IC50 is strictly smaller, the label is True; if not, the label is False.

Please review the entries below; each comes with its answer.
molecule=CC(C)S(=O)(=O)c1ccc(-c2cnc(N)c(C(=O)Nc3ccccc3)n2)cc1 label=True
molecule="CC(CN(C)C)S(=O)(=O)c1ccc(-c2cnc(N)c(C(=O)Nc3ccccc3)n2)cc1 (stereo not drawn)" label=True
molecule=CS(=O)(=O)c1ccc(-c2cnc(N)c(-c3nc4ccccc4o3)n2)cc1 label=True
molecule=NC(=O)c1ccc(-c2cnc(N)c(C(=O)Nc3ccccc3)n2)cc1 label=True
molecule=CCS(=O)(=O)c1ccc(-c2cnc(N)c(C(=O)Nc3ccccc3)n2)cc1 label=True
molecule=Nc1ncc(-c2ccc(Cl)cc2)nc1C(=O)Nc1ccccc1 label=False
molecule="CC(CCO)S(=O)(=O)c1ccc(-c2cnc(N)c(C(=O)Nc3ccccc3)n2)cc1 (stereo not drawn)" label=True
molecule=Nc1ncc(-c2ccccc2Cl)nc1C(=O)Nc1ccccc1 label=False
molecule=O=c1cc(N2CCOCC2)oc2c1ccc1ccccc12 label=False
molecule=Nc1nccnc1C(=O)Nc1ccccc1 label=False

I wonder whether C[S+]([O-])c1ccc(-c2cnc(N)c(C(=O)Nc3ccccc3)n2)cc1 (stereo not drawn) has IC50 below 200 nM. Can you tell? True

I wonder whether "COc1cccc(-c2cnc(N)c(C(=O)Nc3ccccc3)n2)c1" has IC50 below 200 nM. Can you tell? False

I wonder whether "Nc1ncc(-c2ccc(O)cc2)nc1C(=O)Nc1ccccc1" has IC50 below 200 nM. Can you tell? False

* * *

molecular target: DNA-dependent protein kinase catalytic subunit (Homo sapiens); assay: Inhibition of DNAPK after 2 hrs by radiometric phosphate incorporation assay
Sequence (P78527 whole entry): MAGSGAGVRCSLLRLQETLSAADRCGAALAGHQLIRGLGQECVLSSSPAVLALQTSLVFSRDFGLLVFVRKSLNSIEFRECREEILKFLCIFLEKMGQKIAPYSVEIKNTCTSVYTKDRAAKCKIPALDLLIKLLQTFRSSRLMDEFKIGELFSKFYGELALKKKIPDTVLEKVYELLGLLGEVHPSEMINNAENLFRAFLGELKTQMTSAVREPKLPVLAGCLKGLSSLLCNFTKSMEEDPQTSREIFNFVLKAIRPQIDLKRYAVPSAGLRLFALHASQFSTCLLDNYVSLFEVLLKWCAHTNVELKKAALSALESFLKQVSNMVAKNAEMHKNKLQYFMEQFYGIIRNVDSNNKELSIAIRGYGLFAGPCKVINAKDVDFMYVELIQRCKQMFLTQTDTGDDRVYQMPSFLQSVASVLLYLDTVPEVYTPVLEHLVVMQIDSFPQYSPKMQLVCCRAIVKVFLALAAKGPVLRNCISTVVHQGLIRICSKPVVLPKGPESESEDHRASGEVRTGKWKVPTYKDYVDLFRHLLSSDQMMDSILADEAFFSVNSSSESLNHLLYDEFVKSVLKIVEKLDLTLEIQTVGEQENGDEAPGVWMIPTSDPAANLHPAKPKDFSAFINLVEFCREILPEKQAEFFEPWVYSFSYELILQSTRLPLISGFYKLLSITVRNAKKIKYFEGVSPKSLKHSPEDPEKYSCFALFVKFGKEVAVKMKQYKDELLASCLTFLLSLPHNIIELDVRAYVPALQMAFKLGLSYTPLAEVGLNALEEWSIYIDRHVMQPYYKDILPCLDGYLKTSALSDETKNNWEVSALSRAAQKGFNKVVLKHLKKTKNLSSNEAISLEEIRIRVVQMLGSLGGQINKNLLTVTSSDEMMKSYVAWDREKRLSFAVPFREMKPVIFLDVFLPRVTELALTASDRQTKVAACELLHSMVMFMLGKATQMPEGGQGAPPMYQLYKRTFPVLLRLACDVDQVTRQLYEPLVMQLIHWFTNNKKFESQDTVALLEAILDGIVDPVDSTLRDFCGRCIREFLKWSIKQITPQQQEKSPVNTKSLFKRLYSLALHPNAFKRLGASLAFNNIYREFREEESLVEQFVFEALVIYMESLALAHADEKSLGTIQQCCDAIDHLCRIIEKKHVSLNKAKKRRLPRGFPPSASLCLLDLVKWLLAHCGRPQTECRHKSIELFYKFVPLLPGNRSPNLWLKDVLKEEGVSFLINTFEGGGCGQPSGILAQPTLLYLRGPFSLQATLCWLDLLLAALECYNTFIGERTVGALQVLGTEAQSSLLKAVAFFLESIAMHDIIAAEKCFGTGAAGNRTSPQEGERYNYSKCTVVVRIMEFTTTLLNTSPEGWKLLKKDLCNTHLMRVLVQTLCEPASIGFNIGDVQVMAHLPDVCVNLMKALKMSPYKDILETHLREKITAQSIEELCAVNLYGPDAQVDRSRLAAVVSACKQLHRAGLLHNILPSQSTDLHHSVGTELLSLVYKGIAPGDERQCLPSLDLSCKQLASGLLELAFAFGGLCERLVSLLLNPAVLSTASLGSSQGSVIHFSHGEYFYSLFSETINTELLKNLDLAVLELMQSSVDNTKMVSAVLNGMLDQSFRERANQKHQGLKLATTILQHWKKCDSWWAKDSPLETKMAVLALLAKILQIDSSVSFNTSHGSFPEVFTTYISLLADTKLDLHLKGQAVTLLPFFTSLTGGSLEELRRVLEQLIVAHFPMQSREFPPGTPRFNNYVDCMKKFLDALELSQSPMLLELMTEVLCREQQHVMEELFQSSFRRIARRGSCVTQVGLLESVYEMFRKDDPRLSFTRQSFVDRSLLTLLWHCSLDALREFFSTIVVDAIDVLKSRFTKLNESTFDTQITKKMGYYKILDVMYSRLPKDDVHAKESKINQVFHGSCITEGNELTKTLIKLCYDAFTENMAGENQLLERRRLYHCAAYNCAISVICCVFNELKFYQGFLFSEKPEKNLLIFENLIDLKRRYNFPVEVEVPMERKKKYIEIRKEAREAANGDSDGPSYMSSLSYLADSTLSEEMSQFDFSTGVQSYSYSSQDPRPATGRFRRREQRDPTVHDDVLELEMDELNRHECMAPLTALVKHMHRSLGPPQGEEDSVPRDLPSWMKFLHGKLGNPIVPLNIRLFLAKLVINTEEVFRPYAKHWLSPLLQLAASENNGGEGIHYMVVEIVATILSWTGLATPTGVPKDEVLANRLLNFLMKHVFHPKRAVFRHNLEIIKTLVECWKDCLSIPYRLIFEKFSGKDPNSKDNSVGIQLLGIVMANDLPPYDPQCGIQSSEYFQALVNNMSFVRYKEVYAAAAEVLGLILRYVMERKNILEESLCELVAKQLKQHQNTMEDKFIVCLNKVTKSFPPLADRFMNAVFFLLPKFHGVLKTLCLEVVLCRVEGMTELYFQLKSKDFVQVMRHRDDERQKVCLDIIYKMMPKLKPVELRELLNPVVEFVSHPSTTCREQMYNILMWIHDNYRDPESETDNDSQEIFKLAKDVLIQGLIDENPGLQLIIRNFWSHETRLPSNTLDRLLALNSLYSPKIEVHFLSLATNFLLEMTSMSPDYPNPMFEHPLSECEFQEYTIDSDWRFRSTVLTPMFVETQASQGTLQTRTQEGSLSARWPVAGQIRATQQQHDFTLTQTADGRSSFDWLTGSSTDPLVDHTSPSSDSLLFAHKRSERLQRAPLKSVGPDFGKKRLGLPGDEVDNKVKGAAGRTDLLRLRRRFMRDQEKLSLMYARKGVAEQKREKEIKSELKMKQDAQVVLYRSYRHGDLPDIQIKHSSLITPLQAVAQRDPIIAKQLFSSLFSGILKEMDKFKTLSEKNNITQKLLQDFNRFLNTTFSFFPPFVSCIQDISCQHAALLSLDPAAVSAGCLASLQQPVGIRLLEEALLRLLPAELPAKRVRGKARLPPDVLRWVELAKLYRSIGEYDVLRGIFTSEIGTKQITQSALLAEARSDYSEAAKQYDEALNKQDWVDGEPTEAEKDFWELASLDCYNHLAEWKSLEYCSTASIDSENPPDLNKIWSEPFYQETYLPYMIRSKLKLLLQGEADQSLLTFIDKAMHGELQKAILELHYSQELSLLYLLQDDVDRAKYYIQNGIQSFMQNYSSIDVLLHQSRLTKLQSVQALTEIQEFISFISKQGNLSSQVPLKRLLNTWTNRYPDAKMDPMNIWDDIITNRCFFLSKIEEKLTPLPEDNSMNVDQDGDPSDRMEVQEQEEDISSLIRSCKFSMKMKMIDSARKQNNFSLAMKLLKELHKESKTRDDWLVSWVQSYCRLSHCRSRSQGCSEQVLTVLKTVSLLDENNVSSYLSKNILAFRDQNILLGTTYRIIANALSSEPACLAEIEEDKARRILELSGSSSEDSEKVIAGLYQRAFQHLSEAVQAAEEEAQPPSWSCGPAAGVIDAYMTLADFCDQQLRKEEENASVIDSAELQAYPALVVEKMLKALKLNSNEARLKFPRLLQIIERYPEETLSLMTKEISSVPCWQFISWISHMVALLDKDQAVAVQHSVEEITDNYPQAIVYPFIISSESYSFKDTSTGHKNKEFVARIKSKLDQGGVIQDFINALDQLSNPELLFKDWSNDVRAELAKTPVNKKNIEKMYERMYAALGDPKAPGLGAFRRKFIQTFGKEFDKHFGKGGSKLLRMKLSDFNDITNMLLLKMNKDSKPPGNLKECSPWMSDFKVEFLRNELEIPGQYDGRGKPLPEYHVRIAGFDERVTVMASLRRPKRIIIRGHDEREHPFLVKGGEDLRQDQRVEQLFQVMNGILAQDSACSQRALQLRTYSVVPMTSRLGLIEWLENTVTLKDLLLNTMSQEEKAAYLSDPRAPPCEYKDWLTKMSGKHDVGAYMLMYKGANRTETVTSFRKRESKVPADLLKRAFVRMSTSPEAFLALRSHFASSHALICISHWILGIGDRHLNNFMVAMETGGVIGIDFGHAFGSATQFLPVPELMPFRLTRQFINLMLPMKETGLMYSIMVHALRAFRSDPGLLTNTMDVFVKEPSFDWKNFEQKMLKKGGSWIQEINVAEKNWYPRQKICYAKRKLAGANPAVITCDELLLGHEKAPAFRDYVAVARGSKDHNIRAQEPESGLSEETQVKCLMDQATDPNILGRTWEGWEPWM
Consider the cut-off 4 µM. If the recorded IC50 is strictly smaller, the label is label 1; if not, the label is label 0.

Please review the entries below; each comes with its answer.
molecule=Nc1ncc(-c2ccccc2Cl)nc1C(=O)Nc1ccccc1 label="label 1"
molecule=Nc1ncc(-c2cccc(Cl)c2)nc1C(=O)Nc1ccccc1 label="label 0"
molecule=CS(=O)(=O)c1cccc(-c2cnc(N)c(C(=O)Nc3ccccc3)n2)c1 label="label 1"
molecule=CCS(=O)(=O)c1ccc(-c2cnc(N)c(C(=O)Nc3ccccc3)n2)cc1 label="label 0"
molecule=Cc1ccc(-c2cnc(N)c(C(=O)Nc3ccccc3)n2)cc1 label="label 0"
molecule=COc1cccc(-c2cnc(N)c(C(=O)Nc3ccccc3)n2)c1 label="label 0"
molecule=Nc1ncc(-c2ccc(Cl)cc2)nc1C(=O)Nc1ccccc1 label="label 0"
molecule="C[S+]([O-])c1ccc(-c2cnc(N)c(C(=O)Nc3ccccc3)n2)cc1 (stereo unspecified)" label="label 0"

I wonder whether "Nc1ncc(C2CCCCC2)nc1C(=O)Nc1ccccc1" has IC50 below 4 µM. Can you tell? label 0

I wonder whether "N#Cc1ccc(-c2cnc(N)c(C(=O)Nc3ccccc3)n2)cc1" has IC50 below 4 µM. Can you tell? label 0

I wonder whether "CS(=O)(=O)c1ccc(-c2cnc(N)c(C(=O)Nc3ccccc3)n2)cc1" has IC50 below 4 µM. Can you tell? label 0

* * *

biological target: Serine/threonine-protein kinase ATR (Homo sapiens, UniProt Q13535); experiment: Competitive inhibition of full length recombinant ATR Morrison equation analysis
readout-name: Ki (nM)
Could you give me the number in nM? Just the number is fine.

Any idea what Ki was measured for CC(CN(C)C)S(=O)(=O)c1ccc(-c2cnc(N)c(C(=O)Nc3ccccc3)n2)cc1 (stereo unspecified) ? 6

* * *

experiment: Permeability from basolateral to apical side of human Caco2 cells; assay type: ADME, cell-based; details: Caco-2, read-out: permeability
readout-name: Papp B→A (nm/s)
Could you give me the number in nm/s? Just the number is fine.

Any idea what Papp B→A was measured for CC(CN(C)C)S(=O)(=O)c1ccc(-c2cnc(N)c(C(=O)Nc3ccccc3)n2)cc1 (stereo unspecified) ? 230

* * *

target: Serine/threonine-protein kinase ATR (Homo sapiens); assay: Inhibition of full length recombinant ATR after 24 hrs by radiometric phosphate incorporation assay
readout-name: pIC50
Scale note: pIC50 = -log10(concentration in M).

compound=CCCS(=O)(=O)c1ccc(-c2cnc(N)c(C(=O)Nc3ccccc3)n2)cc1 value=7.85
compound=CN(C)C(=O)c1ccc(-c2cnc(N)c(C(=O)Nc3ccccc3)n2)cc1 value=7.27

Any idea what pIC50 was measured for CCC(C)S(=O)(=O)c1ccc(-c2cnc(N)c(C(=O)Nc3ccccc3)n2)cc1 (stereo not given) ? 8.00

Any idea what pIC50 was measured for "Cn1c(=O)c2c(ncn2C)n(C)c1=O" ? 2.96

Any idea what pIC50 was measured for C[S+]([O-])c1ccccc1-c1cnc(N)c(C(=O)Nc2ccccc2)n1 (stereo not given) ? 6.89

* * *

target: Serine-protein kinase ATM (Homo sapiens); test: Inhibition of full length recombinant ATM after 24 hrs by radiometric phosphate incorporation assay
readout-name: IC50

compound=CS(=O)(=O)c1ccccc1-c1cnc(N)c(C(=O)Nc2ccccc2)n1 value="> 8 µM"

Any idea what IC50 was measured for "Nc1ncc(-c2cccnc2)nc1C(=O)Nc1ccccc1" ? > 8 µM

Any idea what IC50 was measured for "Nc1ncc(-c2ccc(C(=O)N3CCC3)cc2)nc1C(=O)Nc1ccccc1" ? > 8 µM

Any idea what IC50 was measured for C[S+]([O-])c1ccc(-c2cnc(N)c(C(=O)Nc3ccccc3)n2)cc1 (configuration not stated) ? > 8 µM

* * *

Items are presented alongside their recorded IC50.
target: Serine/threonine-protein kinase ATR (Homo sapiens); test: Inhibition of ATR in human HT-29 cells assessed as hydroxyurea-induced phosphorylation of H2AX by immunofluorescence microscopy; assay type: cell-based

Any idea what IC50 was measured for "CC(C)(C)S(=O)(=O)c1ccc(-c2cnc(N)c(C(=O)Nc3ccccc3)n2)cc1" ? 1000 nM

* * *

Items are presented alongside their recorded pIC50.
molecular target: Serine/threonine-protein kinase ATR (Homo sapiens, UniProt Q13535); experiment: Inhibition of full length recombinant ATR after 24 hrs by radiometric phosphate incorporation assay
Scale note: pIC50 = -log10(concentration in M).

Examples with their reported pIC50 follow.
entry_smiles=CS(=O)(=O)c1ccc(-c2cnc(N)c(C(=O)Nc3ccccc3)n2)cc1 target_under_test="Serine/threonine-protein kinase ATR (Homo sapiens, UniProt Q13535)" readout_name=pIC50 value=7.59
entry_smiles=Nc1ncc(-c2ccc(S(=O)(=O)[C@@H]3CCOC3)cc2)nc1C(=O)Nc1ccccc1 target_under_test="Serine/threonine-protein kinase ATR (Homo sapiens, UniProt Q13535)" readout_name=pIC50 value=8.00
entry_smiles=Nc1ncc(-c2ccc(C(=O)N3CCCCC3)cc2)nc1C(=O)Nc1ccccc1 target_under_test="Serine/threonine-protein kinase ATR (Homo sapiens, UniProt Q13535)" readout_name=pIC50 value=7.59

For the record "CS(=O)(=O)c1ccccc1-c1cnc(N)c(C(=O)Nc2ccccc2)n1" , what value of pIC50 is listed for Serine/threonine-protein kinase ATR (Homo sapiens, UniProt Q13535)? 5.89

For the record "CS(=O)(=O)c1ccc(-c2cnc(N)c(-c3cc4ccccc4[nH]3)n2)cc1" , what value of pIC50 is listed for Serine/threonine-protein kinase ATR (Homo sapiens, UniProt Q13535)? 7.64

* * *

target: DNA-dependent protein kinase catalytic subunit (Homo sapiens); test: Inhibition of DNAPK after 2 hrs by radiometric phosphate incorporation assay
Items are presented alongside their recorded pIC50.
Scale note: pIC50 = -log10(concentration in M).

compound=CNC(=O)c1ccc(-c2cnc(N)c(C(=O)Nc3ccccc3)n2)cc1 readout_name=pIC50 value=5.15

Any idea what pIC50 was measured for CC(CCO)S(=O)(=O)c1ccc(-c2cnc(N)c(C(=O)Nc3ccccc3)n2)cc1 (configuration not stated) ? 5.49

Any idea what pIC50 was measured for "N#Cc1cccc(-c2cnc(N)c(C(=O)Nc3ccccc3)n2)c1" ? 5.66

Any idea what pIC50 was measured for "N#Cc1ccccc1-c1cnc(N)c(C(=O)Nc2ccccc2)n1" ? 6.14

Any idea what pIC50 was measured for "Nc1ncc(-c2ccc(C(=O)N3CCCC3)cc2)nc1C(=O)Nc1ccccc1" ? 5.55

Any idea what pIC50 was measured for "Cc1ccccc1-c1cnc(N)c(C(=O)Nc2ccccc2)n1" ? 5.85

Any idea what pIC50 was measured for "Nc1ncc(-c2ccc(O)cc2)nc1C(=O)Nc1ccccc1" ? 5.74

Any idea what pIC50 was measured for "CS(=O)(=O)c1ccc(-c2cnc(N)c(-c3nc4ccccc4[nH]3)n2)cc1" ? 5.68

Any idea what pIC50 was measured for C[S+]([O-])c1ccccc1-c1cnc(N)c(C(=O)Nc2ccccc2)n1 (configuration not stated) ? 5.70

Any idea what pIC50 was measured for "Cn1c(=O)c2c(ncn2C)n(C)c1=O" ? 2.00

Any idea what pIC50 was measured for "NC(=O)c1ccc(-c2cnc(N)c(C(=O)Nc3ccccc3)n2)cc1" ? 5.92

Any idea what pIC50 was measured for "Nc1ncc(-c2ccc(S(=O)(=O)[C@@H]3CCOC3)cc2)nc1C(=O)Nc1ccccc1" ? 5.36

Any idea what pIC50 was measured for "CC(C)S(=O)(=O)c1ccc(-c2cnc(N)c(C(=O)Nc3ccccc3)n2)cc1" ? 5.25

Any idea what pIC50 was measured for "CS(=O)(=O)c1ccc(-c2cnc(N)c(-c3nc4ccccc4s3)n2)cc1" ? 5.54

Any idea what pIC50 was measured for "CS(=O)(=O)c1ccc(-c2cnc(N)c(-c3nc4ccccc4o3)n2)cc1" ? 5.85

Any idea what pIC50 was measured for "COc1ccc(-c2cnc(N)c(C(=O)Nc3ccccc3)n2)cc1" ? 5.18

Any idea what pIC50 was measured for "Nc1ncc(-c2ccncc2)nc1C(=O)Nc1ccccc1" ? 5.30

Any idea what pIC50 was measured for "CS(=O)(=O)c1ccc(-c2cnc(N)c(-c3cc4ccccc4[nH]3)n2)cc1" ? 5.62

Any idea what pIC50 was measured for "Nc1ncc(-c2cccc(O)c2)nc1C(=O)Nc1ccccc1" ? 5.66
